Hey, just so you know, these numbers are from PubChem BioAssay (NCI).

Would you mind telling me the reported TGI of each entry?
- Test system: PC-3 prostate
- Method: NCI tumour cell line growth inhibition, 48 h

Request: Determine reported TGI for `CCOP(=O)(OCC)Oc1c(OC)c2[nH]c(C(=O)OC)cc2c2c(C(=O)O)c[nH]c12` ; test system: PC-3 prostate.
Response: > 100 µM

Request: State TGI on PC-3 prostate. Entry: `COc1ccc2c(c1)c1c3c(ccc4ncn2c43)N(CCO)CCN=1`
Response: 0.464 µM

Request: Give TGI; test system PC-3 prostate; compound COc1ccc(/C=C2\N=C(N3CCCC(CO)C3)NC2=O)cc1 (stereo not given)
Response: > 100 µM

Request: State, for PC-3 prostate, measured TGI of the compound listed here: CC1=CCC2CC1C(C(=O)c1c[nH]c3ccccc13)=NC2(C)C (stereo not given)
Response: > 100 µM

Request: Provide TGI, system PC-3 prostate, entry O=c1onc2n1-c1ccc(Cl)cc1C(=S)N1CSCC21 (stereo not given)
Response: > 100 µM

Request: Give measured TGI for `COC(=O)/C=C1/SC(=Nc2cccc(Cl)c2)N(CCc2c[nH]c3ccc(O)cc23)C1=O` (PC-3 prostate).
Response: 3.87 µM

Request: # assay system PC-3 prostate: give TGI of `S=C(NCc1ccccc1)Nc1sc(=NCc2ccccc2)nc2sc3c(c12)CCN(N1CCc2c(sc4nc(=NCc5ccccc5)sc(NC(=S)NCc5ccccc5)c24)C1)C3`
Response: > 49.8 µM

Request: Give measured TGI for `Fc1cc(C2=Nn3c(COc4ccccc4Cl)nnc3S/C2=C\c2ccc(Cl)cc2)c(Cl)cc1Cl` (PC-3 prostate).
Response: 68.9 µM

Request: Under PC-3 prostate: report TGI of `O=S(=O)(O)c1ccc(N=Nc2ccccc2)cc1` .
Response: > 100 µM

Request: Answer briefly: TGI recorded on PC-3 prostate for `COC(=O)CCc1ccc(CCC(=O)OC)cc1`
Response: > 100 µM

Request: Fetch value of TGI on PC-3 prostate for `COC(NC(=O)Nc1ccc(C)cc1)(C(F)(F)F)C(F)(F)F` .
Response: > 100 µM

Request: // fetch TGI for `C#C[C@]1(O)CC[C@H]2[C@@H]3CCC4=C/C(=N\OCCN5CCCCC5)CC[C@]4(C)[C@H]3CC[C@@]21C` ; system: PC-3 prostate
Response: 17.3 µM

Request: Lab note: record TGI of `O=C(c1c(F)c(F)c(F)c(F)c1F)c1c(F)c(F)c(F)c(F)c1F` tested on PC-3 prostate.
Response: 3.39 µM

Request: GET TGI where system = PC-3 prostate and item = CC1CCN(C(C)C)P(=S)(Cc2ccccc2)O1 (stereo not given)
Response: > 100 µM

Request: Please tell me the measured TGI for `COc1ccc(C(=O)/C=C/c2ccc(OCCCCCCCCCCOc3ccc(/C=C/C(=O)c4ccc(OC)cc4)cc3)cc2)cc1` ; system: PC-3 prostate.
Response: > 100 µM

Request: Report TGI from PC-3 prostate testing of `CCSC[C@@H]1C[C@](O)(c2ccc(Cl)cc2)[C@@H](c2ccc(Cl)cc2)O1`
Response: 39.1 µM

Request: Param request: TGI | system PC-3 prostate | item `COC(=O)C1=C(C)NC(=O)N2[C@@H](CCOCc3ccccc3)CC[C@@H]12`
Response: > 50 µM

Request: GET TGI | system: PC-3 prostate | item: CC1C(C)(C)C23CC12C1(OCCO1)C3Br (stereo not given)
Response: > 100 µM

Request: Supply TGI measured with PC-3 prostate for `CCOC(=O)c1ccc(-n2cnc(-c3ccc([N+](=O)[O-])cc3)c2)cc1` .
Response: > 100 µM

Request: Report measured TGI on PC-3 prostate; entry: `O=C(O)Cc1cccc2c(=O)cc(-c3ccccc3)oc12`
Response: > 1000 µM
